- Tested on: Rattus norvegicus
- EXPERIMENT_SUMMARY: Antiinflammatory activity in Wistar albino rat assessed as inhibition of carageenaan-induced paw edema at 45 mg/kg, po administered 1 hr prior to carageenaan-challenge measured at 4 hrs relative to control
- Assay type: functional
Kind request: treat 70% as inclusive, so inhibition in vivo at 45 mg/kg at 70% or higher is condition met, anything lower is condition not met.

The examples below pair each entry with its known result.
Cc1nn(C(=O)c2ccc(Cl)cc2Cl)c2c1nnc1cc(Cl)c(F)cc12
condition not met
Cc1nn(C(=O)c2ccc(N)cc2)c2c1nnc1cc(Cl)c(F)cc12
condition not met
COc1ccc(C(=O)n2nc(C)c3nnc4cc(Cl)c(F)cc4c32)cc1OC
condition not met
COc1ccc2cc([C@H](C)C(=O)O)ccc2c1 [NAPROXEN]
condition met
Cc1nn(C(=O)c2ccc(Cl)cc2)c2c1nnc1cc(Cl)c(F)cc12
condition not met
Cc1nn(C(=O)COc2ccccc2)c2c1nnc1cc(Cl)c(F)cc12
condition not met
COc1ccc(C(=O)n2nc(C)c3nnc4cc(Cl)c(F)cc4c32)cc1
condition met
Cc1nn(C(=O)Cc2cccc3ccccc23)c2c1nnc1cc(Cl)c(F)cc12
condition not met
Cc1nn(C(=O)c2ccccc2)c2c1nnc1cc(Cl)c(F)cc12
condition not met
Cc1nn(C(=O)COc2ccc(Cl)cc2Cl)c2c1nnc1cc(Cl)c(F)cc12
condition not met

Check this compound for inhibition in vivo at 45 mg/kg at or above 70%: `Cc1ccc(C(=O)n2nc(C)c3nnc4cc(Cl)c(F)cc4c32)cc1`
condition met

Assess whether reported inhibition in vivo at 45 mg/kg for `Cc1nn(C(=O)c2ccc([N+](=O)[O-])cc2)c2c1nnc1cc(Cl)c(F)cc12` sits at 70% or higher.
condition not met

Source of measurements: ChEMBL document CHEMBL2203127
